Numbers sourced from the Human Domainome abundance scans (Beltran et al. 2025).

B1: Protein S100-G, residues 1 to 79; numbered along this chain, P02633 (parent)
chain: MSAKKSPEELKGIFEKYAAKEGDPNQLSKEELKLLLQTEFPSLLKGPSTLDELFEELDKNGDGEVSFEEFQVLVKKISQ

# Variants of: B1
# Method description: abundance fitness (aPCA) (normalised: wild type 0, dead -1); higher = more abundant; growth selection in yeast, the domain comes from the species named
# Settings: Bos taurus
Endpoint: abundance fitness

> print(dat)
   mutations           endpoint  observed.result
1       I77Q  abundance fitness           -0.092
2        S6A  abundance fitness           -0.227
3       S66F  abundance fitness           -0.124
4       K11M  abundance fitness           -0.151
